- STUDY_TARGET: human D2 receptor (Homo sapiens (Human), UniProt P14416)
- Sequence (P14416 whole entry): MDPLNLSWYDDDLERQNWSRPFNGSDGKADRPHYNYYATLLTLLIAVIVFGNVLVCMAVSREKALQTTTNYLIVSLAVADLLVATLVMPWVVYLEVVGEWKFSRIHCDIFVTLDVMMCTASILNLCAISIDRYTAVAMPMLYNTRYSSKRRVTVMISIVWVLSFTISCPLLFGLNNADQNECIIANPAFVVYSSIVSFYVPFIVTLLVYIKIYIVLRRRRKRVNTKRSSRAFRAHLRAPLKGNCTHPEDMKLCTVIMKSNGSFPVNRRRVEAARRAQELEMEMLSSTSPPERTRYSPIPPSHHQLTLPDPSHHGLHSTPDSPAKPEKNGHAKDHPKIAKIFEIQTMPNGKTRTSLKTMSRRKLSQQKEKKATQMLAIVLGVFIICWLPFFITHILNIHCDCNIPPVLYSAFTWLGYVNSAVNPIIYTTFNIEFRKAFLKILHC
- PROTOCOL: Radioligand binding assay, [3H]-spiperone, human D2 receptor
- EXPERIMENTAL_CONTEXT: membranes of HEK293 EBNA cells expressing human D2; 0.7 nM [3H]-spiperone
MEASURED_PARAMETER: pKi
# log scale: pKi equals minus log10 of the concentration in mol/L

COMPOUND | STUDY_TARGET | ASSAY_VALUE
CCS(=O)(=O)N[C@H]1CC[C@H](CCN2CCN(c3nccc4sccc34)CC2)CC1 [Example 31] | human D2 receptor (Homo sapiens (Human), UniProt P14416) | 6.66
O=C(N[C@H]1CC[C@H](CCN2CCN(c3nccc4c3CCO4)CC2)CC1)c1ccccc1 [Example 44] | human D2 receptor (Homo sapiens (Human), UniProt P14416) | 6.32
O=C(N[C@H]1CC[C@H](CCN2CCN(c3nccc4c3CCO4)CC2)CC1)C1CCC1 [Example 52] | human D2 receptor (Homo sapiens (Human), UniProt P14416) | 6.26
COCCC(=O)N[C@H]1CC[C@H](CCN2CCN(c3nc(C)cc4occc34)CC2)CC1 [Example 99] | human D2 receptor (Homo sapiens (Human), UniProt P14416) | 6.37
O=C(N[C@H]1CC[C@H](CCN2CCN(c3nccc4c3CCO4)CC2)CC1)c1cnc(N2CCOCC2)cn1 [Example 130] | human D2 receptor (Homo sapiens (Human), UniProt P14416) | 6.30

Need pKi of CCCCC(=O)N[C@H]1CC[C@H](CCN2CCN(c3nccc4c3CCO4)CC2)CC1 [Example 94] , thanks. 5.94

Also O=C(N[C@H]1CC[C@H](CCN2CCN(c3nccc4c3CCO4)CC2)CC1)c1ccc2ncccc2c1 [Example 128] ? 6.30

Also CN(C)C(=O)CCC(=O)N[C@H]1CC[C@H](CCN2CCN(c3nccc4c3CCO4)CC2)CC1 [Example 86] ? 5.59

###

- STUDY_TARGET: human 5-HT2A receptor (Homo sapiens (Human))
- Sequence (P28223 whole entry): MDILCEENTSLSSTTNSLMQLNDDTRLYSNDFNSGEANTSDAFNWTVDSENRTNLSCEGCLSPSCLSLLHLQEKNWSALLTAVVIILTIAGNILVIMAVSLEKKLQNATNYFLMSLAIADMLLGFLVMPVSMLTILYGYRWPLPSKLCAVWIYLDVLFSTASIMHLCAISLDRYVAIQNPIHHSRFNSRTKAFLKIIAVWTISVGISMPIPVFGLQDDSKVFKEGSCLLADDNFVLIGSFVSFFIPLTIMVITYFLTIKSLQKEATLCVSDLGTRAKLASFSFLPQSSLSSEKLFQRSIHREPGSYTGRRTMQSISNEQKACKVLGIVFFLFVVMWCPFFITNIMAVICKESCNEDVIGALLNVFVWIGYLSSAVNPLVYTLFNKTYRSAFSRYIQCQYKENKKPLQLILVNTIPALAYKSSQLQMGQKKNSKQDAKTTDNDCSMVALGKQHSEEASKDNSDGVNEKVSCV
- PROTOCOL: Radioligand binding assay, [3H]-ketanserin, human 5-HT2A receptor
Entries whose Ki is below 10 nM take Yes; entries at or above 10 nM take No.

MOLECULE | CATEGORY
CC(=O)N[C@H]1CC[C@H](CCN2CCN(c3nccc4occc34)CC2)CC1 [Example 1] | Yes
O=C(C[C@@H](O)C(F)(F)F)N[C@H]1CC[C@H](CCN2CCN(c3nccc4c3CCO4)CC2)CC1 [Example 88] | No
CCS(=O)(=O)N[C@H]1CC[C@H](CCN2CCN(c3nccc4c3CCO4)CC2)CC1 [Example 49] | No
Cc1cnc(N2CCN(CC[C@H]3CC[C@H](NC(=O)C4CCOCC4)CC3)CC2)c2ccoc12 [Example 105] | Yes
Cc1cc2occc2c(N2CCN(CC[C@H]3CC[C@H](NC(=O)C4CCOCC4)CC3)CC2)n1 [Example 97] | No
COCCC(=O)N[C@H]1CC[C@H](CCN2CCN(c3nccc4sccc34)CC2)CC1 [Example 19] | Yes
O=C(C[C@@H]1CCCO1)N[C@H]1CC[C@H](CCN2CCN(c3nccc4c3CCO4)CC2)CC1 [Example 69] | No

Read the next record carefully.
Here's an entry: COCC(=O)N[C@H]1CC[C@H](CCN2CCN(c3nccc4c3CCO4)CC2)CC1 [Example 38] . Is its Ki below 10 nM? No

###

- STUDY_TARGET: human D2 receptor (Homo sapiens (Human), UniProt P14416)
- PROTOCOL: Radioligand binding assay, [3H]-spiperone, human D2 receptor
- EXPERIMENTAL_CONTEXT: membranes of HEK293 EBNA cells expressing human D2; 0.7 nM [3H]-spiperone
pKi: −log10 of the molar value.
Each entry gets Criterion not met if its pKi stays under 6, and Criterion met if its pKi is 6 or above.

Look over these answered cases.
COMPOUND | STUDY_TARGET | CATEGORY
O=C(CO)N[C@H]1CC[C@H](CCN2CCN(c3nccc4c3CCO4)CC2)CC1 | human D2 receptor (Homo sapiens (Human), UniProt P14416) | Criterion not met
O=C(N[C@H]1CC[C@H](CCN2CCN(c3nccc4c3CCO4)CC2)CC1)C1CC1(F)F (stereo partly shown) | human D2 receptor (Homo sapiens (Human), UniProt P14416) | Criterion met
CCC(=O)N[C@H]1CC[C@H](CCN2CCN(c3nccc4sccc34)CC2)CC1 | human D2 receptor (Homo sapiens (Human), UniProt P14416) | Criterion met
CO[C@@H]1CC[C@@H](CC(=O)N[C@H]2CC[C@H](CCN3CCN(c4nccc5sccc45)CC3)CC2)C1 [Example 25] | human D2 receptor (Homo sapiens (Human), UniProt P14416) | Criterion met
CC(=O)N[C@H]1CC[C@H](CCN2CCN(c3nccc4sccc34)CC2)CC1 | human D2 receptor (Homo sapiens (Human), UniProt P14416) | Criterion met
CC(=O)N[C@H]1CC[C@H](CCN2CCN(c3nc(C)cc4occc34)CC2)CC1 | human D2 receptor (Homo sapiens (Human), UniProt P14416) | Criterion met
Cc1cc2c(c(N3CCN(CC[C@H]4CC[C@H](NC(=O)CC5CCOCC5)CC4)CC3)n1)CCO2 | human D2 receptor (Homo sapiens (Human), UniProt P14416) | Criterion not met
N#Cc1ccc(C(=O)N[C@H]2CC[C@H](CCN3CCN(c4nccc5c4CCO5)CC3)CC2)cc1 | human D2 receptor (Homo sapiens (Human), UniProt P14416) | Criterion met
CC(=O)N[C@H]1CC[C@H](CCN2CCN(c3nccc4occc34)CC2)CC1 | human D2 receptor (Homo sapiens (Human), UniProt P14416) | Criterion met
CN1CCN(c2ccc(C(=O)N[C@H]3CC[C@H](CCN4CCN(c5nccc6c5CCO6)CC4)CC3)cc2)CC1 | human D2 receptor (Homo sapiens (Human), UniProt P14416) | Criterion met

Say whether CC(C)(C)Oc1ccc(C(=O)N[C@H]2CC[C@H](CCN3CCN(c4nccc5c4CCO5)CC3)CC2)cc1 shows pKi of 6 or more. Criterion not met

Also Cc1nc(-c2cccc(C(=O)N[C@H]3CC[C@H](CCN4CCN(c5nccc6c5CCO6)CC4)CC3)c2)no1 ? Criterion not met

Also Cc1cc(C(=O)N[C@H]2CC[C@H](CCN3CCN(c4nccc5c4CCO5)CC3)CC2)on1 ? Criterion met

###

- STUDY_TARGET: human 5-HT2A receptor (Homo sapiens (Human))
- PROTOCOL: Radioligand binding assay, [3H]-ketanserin, human 5-HT2A receptor
- EXPERIMENTAL_CONTEXT: membranes of HEK293 EBNA cells expressing human 5-HT2A; 1.1 nM [3H]-ketanserin
Binning rule for recorded Ki: label 0: < 10 nM; label 1: ≥ 10 nM and < 20 nM; label 2: ≥ 20 nM

Look over these answered cases.
MOLECULE | CATEGORY
CC#CC(=O)N[C@H]1CC[C@H](CCN2CCN(c3nccc4c3CCO4)CC2)CC1 [Example 82] | label 1
O=C(N[C@H]1CC[C@H](CCN2CCN(c3nccc4occc34)CC2)CC1)c1ccnc2ccccc12 [Example 29] | label 0
O=C(C[C@@H]1COCCO1)N[C@H]1CC[C@H](CCN2CCN(c3nccc4c3CCO4)CC2)CC1 [Example 61] | label 1
CO[C@@H]1CC[C@@H](CC(=O)N[C@H]2CC[C@H](CCN3CCN(c4nccc5sccc45)CC3)CC2)C1 (racemic) [Example 21] | label 0
CCS(=O)(=O)N[C@H]1CC[C@H](CCN2CCN(c3nccc4sccc34)CC2)CC1 [Example 31] | label 0

# bin label for Cc1cc2c(c(N3CCN(CC[C@H]4CC[C@H](NC(=O)C5CCOCC5)CC4)CC3)n1)CCO2 [Example 101] label 2

Also O=C(CC1CCC1)N[C@H]1CC[C@H](CCN2CCN(c3nccc4c3CCO4)CC2)CC1 [Example 73] ? label 1

Also O=C(N[C@H]1CC[C@H](CCN2CCN(c3nccc4c3CCO4)CC2)CC1)C1CC1 [Example 63] ? label 1

Also CO[C@H](C)C(=O)N[C@H]1CC[C@H](CCN2CCN(c3nccc4c3CCO4)CC2)CC1 [Example 135] ? label 0

Also CO[C@H]1CC[C@H](CC(=O)N[C@H]2CC[C@H](CCN3CCN(c4nccc5c4CCO5)CC3)CC2)C1 [Example 90] ? label 2

Also O=C(N[C@H]1CC[C@H](CCN2CCN(c3nccc4c3CCO4)CC2)CC1)C1CC1(F)F (stereo partly shown) [Example 74] ? label 1

Also CC(=O)N[C@H]1CC[C@H](CCN2CCN(c3ncc(C)c4c3CCO4)CC2)CC1 [Example 108] ? label 2

Also CC(C)=CC(=O)N[C@H]1CC[C@H](CCN2CCN(c3nccc4c3CCO4)CC2)CC1 [Example 80] ? label 1

Also COC(CCC(=O)N[C@H]1CC[C@H](CCN2CCN(c3nccc4c3CCO4)CC2)CC1)OC [Example 114] ? label 1

Also O=C(N[C@H]1CC[C@H](CCN2CCN(c3nccc4c3CCO4)CC2)CC1)c1ccc(Cl)cc1Cl [Example 132] ? label 2

Also O=C(N[C@H]1CC[C@H](CCN2CCN(c3nccc4c3CCO4)CC2)CC1)c1ccc(N2CCOCC2)cc1 [Example 57] ? label 0

Also O=S(=O)(N[C@H]1CC[C@H](CCN2CCN(c3nccc4c3CCO4)CC2)CC1)c1ccccc1 [Example 138] ? label 2

Also CC(C)(O)CC(=O)N[C@H]1CC[C@H](CCN2CCN(c3nccc4c3CCO4)CC2)CC1 [Example 87] ? label 2
